These measurements were taken from patent US20260217703A1.

Here's what we have: IC50 numbers for S. aureus Alpha hemolysin (Staphylococcus aureus, UniProt P09616).

{"columns": ["moleculeSmiles", "IC50"],
 "data": [
  ["COc1ccc(-c2ccc(NS(=O)(=O)c3nc4[nH]c(=O)c(=O)[nH]c4cc3C)cc2Cl)cc1F", "100 to 1000 nM"],
  ["Cc1cc2[nH]c(=O)c(=O)[nH]c2nc1S(=O)(=O)Nc1cnc(-c2ccc3c(c2)NC(=O)CO3)c(Cl)c1", "1000 to 6000 nM"],
  ["Cc1cc2[nH]c(=O)c(=O)[nH]c2nc1S(=O)(=O)Nc1ccc(-c2ccc(F)c(Cl)c2)c(Cl)c1", "1000 to 6000 nM"]
]}

Task: State recorded IC50 with S. aureus Alpha hemolysin (Staphylococcus aureus, UniProt P09616), entry Cc1nc2ccc(-c3ccc(NS(=O)(=O)c4ccc5[nH]c(=O)c(=O)[nH]c5n4)cc3Cl)cc2o1 , no comment.
Sequence (P09616 27-319 limits assumed): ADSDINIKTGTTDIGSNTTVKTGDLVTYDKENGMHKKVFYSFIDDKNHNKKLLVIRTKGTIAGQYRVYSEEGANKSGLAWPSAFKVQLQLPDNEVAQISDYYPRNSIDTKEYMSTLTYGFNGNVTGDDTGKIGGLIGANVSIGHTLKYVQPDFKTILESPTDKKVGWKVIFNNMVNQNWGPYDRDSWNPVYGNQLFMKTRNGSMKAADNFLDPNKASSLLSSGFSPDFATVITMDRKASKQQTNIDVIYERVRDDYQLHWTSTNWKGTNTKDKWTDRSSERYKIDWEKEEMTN
Output: 100 to 1000 nM

Task: Write down measured IC50 (S. aureus Alpha hemolysin (Staphylococcus aureus, UniProt P09616)) for this compound. Cc1nc2cc(-c3ncc(NS(=O)(=O)c4ccc5[nH]c(=O)c(=O)[nH]c5n4)cc3Cl)ccc2o1
Output: 1000 to 6000 nM

Task: Find the measured IC50 of Cc1cc(NS(=O)(=O)c2nc3[nH]c(=O)c(=O)[nH]c3cc2C)ccc1-c1ccc(F)cc1 with S. aureus Alpha hemolysin (Staphylococcus aureus, UniProt P09616) as test system.
Output: 30 to 100 nM

Task: Please report IC50 with S. aureus Alpha hemolysin (Staphylococcus aureus, UniProt P09616) for item Cc1cc2[nH]c(=O)c(=O)[nH]c2nc1S(=O)(=O)Nc1ccc(-c2ccc(F)cc2)c(Cl)c1 .
Output: 100 to 1000 nM

Task: Give the observed IC50 of Cc1cc2[nH]c(=O)c(=O)[nH]c2nc1S(=O)(=O)Nc1ccc(-c2cncc(Cl)c2)c(Cl)c1 for S. aureus Alpha hemolysin (Staphylococcus aureus, UniProt P09616).
Output: 100 to 1000 nM

Task: Give reported IC50 for CC(C)c1cc2[nH]c(=O)c(=O)[nH]c2nc1S(=O)(=O)Nc1ccc(OC(F)(F)F)cc1 (S. aureus Alpha hemolysin (Staphylococcus aureus, UniProt P09616))
Output: 100 to 1000 nM
